The entries below are paired with their reported log10(kon).
# Target of assay: T1, HER2 immobilised on a Biacore chip (UniProt P04626 23-652, limits assumed)
# T1 construct: also called immobilised HER2 target antigen (Biacore SPR); HER2 chip
# Protocol summary: Biacore SPR, HER2 amine-coupled to the chip
For clarity, the numbers are log10 values of kon expressed in M⁻¹ s⁻¹.

// known answers, use as guide
Binder	log10(kon)
scFv (TCT1067)-Auristatin-F-C5 DAR 5.65 (scFv, Auristatin F-C5 on lysine residues; DAR 6.31 by AAA, 4.98 by MS, average 5.65, also called TCT1067-AF-C5 ADC2) scFv: SGSGGSGQVQLVQSGAEVKKPGESLKISCKGSGYSFTSYWIAWVRQMPGKGLEYMGLIYPGDSDTKYSPSFQGQVTISVDKSVSTAYLQWSSLKPSDSAVYFCARHDVGYCTDRTCAAWPEWLGVWGQGTLVTVSSGGGGSGGGGSGGGGSQSVLTQPPSVSAAPGQKVTISCSGSSSNIGNNYVSWYQQLPGTAPKLLIYGHTNRPAGVPDRFSGSKSGTSASLAISGFRSEDEADYYCASWDYTLSGWVFGGGTKLTVLMASMTGGQQMG	5.53
scFv (TCT1067)-P5-C5 DAR 10.9 (scFv, P5-C5 on lysine residues; DAR 10.4 by AAA, 11.7 by MS, overall average 10.9, also called TCT1067-P5C5 ADC 1; compound 71) scFv: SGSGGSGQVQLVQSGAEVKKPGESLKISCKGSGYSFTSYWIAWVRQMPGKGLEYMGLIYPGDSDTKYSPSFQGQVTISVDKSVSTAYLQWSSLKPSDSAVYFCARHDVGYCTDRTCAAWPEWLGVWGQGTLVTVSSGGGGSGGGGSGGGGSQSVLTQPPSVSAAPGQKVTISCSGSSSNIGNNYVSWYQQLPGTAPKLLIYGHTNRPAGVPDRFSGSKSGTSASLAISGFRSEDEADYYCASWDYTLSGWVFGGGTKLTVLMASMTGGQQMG	5.37
scFv (TCT)-MMAF-C5 ADC 2 (DAR 6.8) (scFv, MMAF-C5 on lysine residues; DAR 8.0 by AAA, 5.5 by MS, average 6.8, also called scFv (TCT)-MMAF-C5 DAR 6.8; scFv (TCT)-MMAF DAR 8) scFv: SGSGGSGQVQLVQSGAEVKKPGESLKISCKGSGYSFTSYWIAWVRQMPGKGLEYMGLIYPGDSDTKYSPSFQGQVTISVDKSVSTAYLQWSSLKPSDSAVYFCARHDVGYCSSSNCAAWPEYFQHWGQGTLVTVSSGGGGSGGGGSGGGGSQSVLTQPPSVSAAPGQKVTISCSGSSSNIGNNYVSWYQQLPGTAPKLLIYGHTNRPAGVPDRFSGSKSGTSASLAISGFRSEDEADYYCAAWDDSLSGWVFGGGTKLTVLMASMTGGQQMG	6.08
scFv (TCT) (scFv, Anti-HER2 C6.5 scFv with residual Ser, GSGGSG linker and C-terminal T7 tag; also called cleaved TCT; unmodified scFv (TCT)) scFv: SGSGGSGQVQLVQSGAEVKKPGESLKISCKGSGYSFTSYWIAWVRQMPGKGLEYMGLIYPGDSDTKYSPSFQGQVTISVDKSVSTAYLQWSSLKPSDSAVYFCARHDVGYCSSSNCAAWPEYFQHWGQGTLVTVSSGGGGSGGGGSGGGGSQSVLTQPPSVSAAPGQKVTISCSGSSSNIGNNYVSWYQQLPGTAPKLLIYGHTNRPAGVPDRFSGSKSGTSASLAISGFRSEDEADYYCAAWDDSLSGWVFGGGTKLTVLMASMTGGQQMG	6.45

Next binder, log10(kon) to be filled in.
What value of log10(kon) has been recorded for this entry: scFv (TCT1067)-DM1-dPEG12 DAR 8 (scFv, Maytansine DM1-dPEG12 (from compound 90) on lysine residues, DAR 8 by LC-MS, also called TCT1067-Maytansine-PEG(12) DM1 ADC 2; scFv (TCT1067)-DM1 DAR 8) scFv: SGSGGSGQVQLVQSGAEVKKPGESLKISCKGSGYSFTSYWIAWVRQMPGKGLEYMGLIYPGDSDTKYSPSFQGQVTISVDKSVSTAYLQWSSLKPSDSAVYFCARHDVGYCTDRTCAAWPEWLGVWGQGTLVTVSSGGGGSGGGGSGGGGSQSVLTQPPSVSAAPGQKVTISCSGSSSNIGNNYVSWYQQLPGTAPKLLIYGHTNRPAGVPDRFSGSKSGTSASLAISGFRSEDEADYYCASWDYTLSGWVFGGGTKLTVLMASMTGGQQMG
4.12
